Measurement description: Cycloheximide Counterscreen for Small Molecule Inhibitors of Shiga Toxin; further: read at 38.3 µM for the half of the compounds with a filed dose
Assay setup: cell reporter, cycloheximide protein synthesis inhibition counterscreen
Hit rate of the full screen: of about 300,000 compounds, about 37,000 (12%) were called active. No stated cut-off is given here; in the data, active means max response mostly above about 13% (no sharp cut-off); inactive means mostly below about 14%. For the sample, actives were picked, then their nearest neighbours and some compounds at random.
# output must be one of true (1) = active, false (0) = inactive

# example entries with known answers
[[record]]
compound = "CC(C)CCNC(=O)c1ccc2c(Cl)c3c(nc2c1)CCC3"
discrete_label = "true (1)"

[[record]]
compound = "C=CCNC(=S)N1CCN(CCN=Cc2c(C)[nH]n(-c3ccc([N+](=O)[O-])cc3)c2=O)CC1"
discrete_label = "false (0)"

[[record]]
compound = "COC(=O)CCCCCN1C(=O)NC(c2ccc(-c3ccccc3)cc2)C(C(=O)OCc2ccccc2)=C1C (stereo not given)"
discrete_label = "false (0)"

[[record]]
compound = "Cc1ccccc1N1CC(C(=O)Nc2ccc3c(c2)OCO3)CC1=O (stereo not given)"
discrete_label = "false (0)"

[[record]]
compound = "O=C(CSc1nc2ccc([N+](=O)[O-])cc2[nH]1)c1ccc(Cl)cc1"
discrete_label = "false (0)"


Kindly review the next compound as well.
In: Each compound tested received a call. Report the one for `COc1ccc(N2CCN(C(=O)c3ccc4c(Cl)c5c(nc4c3)CCCC5)CC2)cc1` .
Out: false (0)
